Source of measurements: patent US20020018778A1

- Test system: serum IgE from patients with documented peanut hypersensitivity
- Procedure summary: IgE immunoblot mapping of human IgE binding epitopes on synthesized peanut antigen peptides
- Cond: human IgE binding epitopes in Ara h 3
For each entry below, report its FRACTION OF PATIENTS WITH IGE THAT BIND value.

# example entries with known answers
Item sequence | Tested on | Measured metric | Reported
VTVRGGLRTLSPDRK [Ara h 3 epitope 3] | serum IgE from patients with documented peanut hypersensitivity | FRACTION OF PATIENTS WITH IGE THAT BIND | 3 (100%)
GNIFSGFTPEFLEQA [Ara h 3 epitope 2] | serum IgE from patients with documented peanut hypersensitivity | FRACTION OF PATIENTS WITH IGE THAT BIND | 2 (38%)
DEDEYEYDEEDRRRG [Ara h 3 epitope 4] | serum IgE from patients with documented peanut hypersensitivity | FRACTION OF PATIENTS WITH IGE THAT BIND | 4 (38%)

Query: Please look at this sequence and report its FRACTION OF PATIENTS WITH IGE THAT BIND: IETWNPNNQEFECAG [Ara h 3 epitope 1]
Reply: 1 (25%)
